test system: EKVX NSCLC; test: NCI-60 one-dose screen, 48 h (100 = growth as untreated, 0 = no growth, -100 = all killed); conditions: 10 µM unless noted
This is part of a sample that, as a whole, favours compounds with a hit. Of some 83,000 tested, about 20% had one in any assay.
# cutoff 50% applies to growth; >= gives Satisfied, < gives Not satisfied

COMPOUND	ASSIGNED CATEGORY
Cc1[nH]ccc2cc3nc4ccccc4c3cc12	Not satisfied
COc1cc(/C(Cl)=C/C=C/C(=O)c2c(C)[n+]([O-])c3ccc(Cl)cc3[n+]2[O-])cc(OC)c1OC	Satisfied
O=C(N/N=C/c1cccc(O)c1)c1ccc(C(F)(F)F)nc1Nc1cccc(C(F)(F)F)c1	Not satisfied
COc1ccc2ncccc2c1Cc1c(OC)ccc2ncccc12	Satisfied
CC[C@@H](c1ccc(O)c(O)c1)[C@@H](CC)c1ccc(O)c(O)c1	Satisfied
C=C1CC[C@@H]2[C@](C)(COC(C)=O)[C@H](OC(C)=O)CC[C@@]2(C)[C@@H]1CC(NCc1ccccc1)C1=CCOC1=O (stereo partly drawn)	Satisfied
CCOC(=O)c1cc2oc(/C=C/c3cc(=O)c4cc(Cl)ccc4o3)cc2[nH]1	Satisfied
CO[C@H]1/C=C/O[C@@]2(C)Oc3c(C)c(O)c4c(O)c(c(/C=N/N5C(C)CN(Cc6ccc(C#N)cc6)CC5C)c(O)c4c3C2=O)NC(=O)/C(C)=C\C=C\[C@H](C)[C@H](O)[C@@H](C)[C@@H](O)[C@@H](C)[C@H](OC(C)=O)[C@@H]1C (stereo partly drawn)	Not satisfied

----------
system: HCT-116 colon; assay: NCI-60 one-dose screen, 48 h (100 = growth as untreated, 0 = no growth, -100 = all killed); settings: 10 µM unless noted
The panel holds about 83,000 compounds, 20% with a hit somewhere; the sample as a whole holds those more often.
# cutoff 90% applies to growth; >= gives condition met, < gives condition not met

                                   compound  assigned_category
0    N/C(=N\c1nc2ccccc2s1)NC(=O)Nc1ccccc1Cl  condition not met
1  CCOC(=O)OCC(=O)[C@@]1(O)CC[C@H]2[C@@H]3CCC4=CC(=O)CC[C@]4(C)[C@H]3[C@@H](O)C[C@@]21C      condition met
2  O=C(Nc1ccc2c(c1)C(=O)c1ccccc1-2)c1ccccc1  condition not met
3  COc1ccc2c(=O)c(OC)c(-c3cc(OC)c(OC)c(OC)c3)oc2c1  condition not met
4       COc1cccc(C=Nc2cc(C(C)C)c(O)cc2C)c1O      condition met
5  c1ccc2nc(Cn3c[n+](Cc4ccc5ccccc5n4)c4ccccc43)ccc2c1  condition not met
6  O=C(NC1CCCCC1)c1ccc(Nc2ncnc3c2cnn3-c2ccccc2)cc1  condition not met
7          COc1ccc(/C=C2\CCc3ccccc3C2=O)cc1      condition met
8  Clc1ccc(C2=NN(c3ccc(Cl)cc3)C(c3cccc(Nc4ccnc5cc(Cl)ccc45)c3)C2)cc1 (stereo not given)  condition not met

----------
tested on: K-562 leukemia; test: NCI-60 one-dose screen, 48 h (100 = growth as untreated, 0 = no growth, -100 = all killed); conditions: 10 µM unless noted
This is part of a sample that, as a whole, favours compounds with a hit. Of some 83,000 tested, about 20% had one in any assay.
METRIC NAME: growth (%)

MOLECULE	METRIC NAME	MEASURED
CCOC1Oc2ccccc2C(=O)/C1=N/c1nccs1 (configuration not stated)	growth	84.9
CN1CCN(c2nc3scc(-c4ccccc4)c3c(=O)[nH]2)CC1	growth	95.9
CC[N+](CCCCCCCCCC[N+](CC)(c1ccccn1)c1ccccn1)(c1ccccn1)c1ccccn1	growth	-2.68
CC1=C([Se]CC(OC(=O)[C@@H](CSSC(C)(C)C)NC(=O)C(C)(C)C)C(=O)NCCCCCC(=O)OCc2ccccc2)C(=O)c2ccccc2C1=O (some centres not stated)	growth	7.91
CCC(C)C1NC(=O)C(CCNCS(=O)(=O)O)NC(=O)C(NC(=O)C(CCNCS(=O)(=O)O)NC(=O)C(NC(=O)C(CCNCS(=O)(=O)O)NC(=O)CCCCC(C)C)C(C)O)CCNC(=O)C(C(C)O)NC(=O)C(CCNCS(=O)(=O)O)NC(=O)C(CCNCS(=O)(=O)O)NC(=O)C(C(C)CC)NC1=O (configuration not stated)	growth	20.2
O=C(Nc1nc(-c2ccc(Cl)cc2)cs1)c1cc(-c2ccc(Br)cc2)nc2ccc(Cl)cc12	growth	25.2
O=C(Nc1ccc(Cl)cc1)Nc1nc2ccc(OC(F)(F)F)cc2o1	growth	60.7

----------
Attribute: growth
system: MDA-MB-231 breast; test: NCI-60 one-dose screen, 48 h (100 = growth as untreated, 0 = no growth, -100 = all killed); details: 10 µM unless noted
Compounds without any hit were thinned out: in the full panel of roughly 83,000, 20% have a hit.
METRIC NAME: growth (%)

                                 mol_smiles  metric_name  measured
0  COc1ccccc1-n1c(-c2ccc(O)cc2C)cn2c3c(=O)[nH]c(=O)n(C)c3nc12       growth        65
1                        N#CC(C#N)C(C#N)C#N       growth       108
2  C/C(=C\CCc1ccoc1)CC/C=C(\C)CCCNc1ccc(F)cc1       growth      72.9
3  O=C(C(=O)N1CCOCC1)c1cn(CCCn2cc(C(=O)C(=O)N3CCOCC3)c3ccccc32)c2ccccc12       growth      93.4
4  CC(=O)c1ccccc1NC(=O)C(C)(c1ccccc1)c1ccccc1       growth      88.8

----------
tested on: SK-MEL-5 melanoma; test: NCI-60 one-dose screen, 48 h; settings: 10 µM unless noted
Compounds without any hit were thinned out: in the full panel of roughly 83,000, 20% have a hit. The source made the active and inactive calls. The calls were made as follows: active = growth percent below 10; inactive = the rest.
Classes used: yes (1) for active, no (0) for inactive

>>> print(df.to_string())
                                   compound  assigned_category
0  C/C(=C\CCc1ccoc1)CC/C=C(\C)CCCNc1ccc(F)cc1             no (0)
1  COc1ccc(-c2ccc(O)c(C(=O)/C=C/c3cc(OC)c(OC)c(OC)c3)c2)cc1             no (0)
2  COc1ccc2nc(-c3ccc(Cl)cc3)cc(-c3nnc(SCC(=O)Nc4ccc(C(C)=O)cc4)n3-c3ccccc3)c2c1             no (0)
3  CCN(CC)c1ccc(N=C2C=CC(=O)C=C2NC(C)=O)cc1             no (0)
4  C=C1CCC2C(C)(COC(=O)CC)C(OC(=O)CC)CCC2(C)C1C/C=C1/C(=O)OCC1OC(=O)CC (centres undefined)             no (0)
5  CC(=O)[C@H]1CC[C@H]2[C@@H]3C[C@H](C)C4=CC(=O)CC[C@]4(C)[C@H]3C(=O)C[C@]12C             no (0)
6          O=c1c2ccccc2c2nccn2c2cc(Cl)ccc12             no (0)
7  COC(=O)[C@H](Cc1cnc[nH]1)NC(=O)[C@@H](NC(=O)Nc1cc(C(F)(F)F)cc(C(F)(F)F)c1)C(C)C            yes (1)
8  CCCc1n(Cc2ccc3ccccc3c2)cc[n+]1Cc1ccc2ccccc2c1            yes (1)

----------
Attribute: growth
test system: PC-3 prostate; experiment: NCI-60 one-dose screen, 48 h (100 = growth as untreated, 0 = no growth, -100 = all killed); settings: 10 µM unless noted
Compounds without any hit were thinned out: in the full panel of roughly 83,000, 20% have a hit. Active and inactive are the calls of the source. The calls were made as follows: active = growth percent below 10; inactive = the rest.

COMPOUND	growth
COc1cc(-c2n[nH]nc2-c2ccccn2)cc(OC)c1OC	82.1% (inactive)
CC(=O)OC1Oc2cc(C)c(C)cc2-c2oc(=O)c(-c3ccccc3)cc21 (stereo not given)	-11.4% (active)
Nc1ccccc1-c1ccn[nH]1	79.1% (inactive)
NC(=N\N=C/Cc1ccccc1)/C(N)=N\N=C\Cc1ccccc1	101% (inactive)
Cc1c2oc3c(C)ccc(C(=O)OC(C)C4NC(=O)C(C(C)C)N(C)C(=O)CN(C)C(=O)C5CCCN5C(=O)C(C(C)C)NC4=O)c3nc-2c(C(=O)OC(C)C2NC(=O)C(C(C)C)N(C)C(=O)CN(C)C(=O)C3CCCN3C(=O)C(C(C)C)NC2=O)c(N)c1=O (stereo not given)	10.4% (inactive)
COC(=O)[C@H](Cc1cnc[nH]1)NC(=O)[C@@H](NC(=O)Nc1cc(C(F)(F)F)cc(C(F)(F)F)c1)C(C)C	-93.2% [100 µM] (active)
CCSCC1CC(O)(c2ccccc2)C(c2ccccc2)C(c2ccc(Cl)cc2)O1 (stereo not given)	4.66% (active)
COC(=O)c1cc2oc(/C=N\NC(=O)c3cc4oc(C)c(C)c4[nH]3)cc2[nH]1	72% (inactive)
O=C(NN1C(=O)c2cc(C(=O)O)c(C(=O)O)cc2C1=O)c1ccncc1	84.6% (inactive)
O=C(NCCNC(=O)Oc1cccc2ccccc12)Oc1cccc2ccccc12	78.5% (inactive)
FCc1ncc(-c2ccc(C(F)(F)F)cc2)c(NC2CCCCCC2)n1	7.27% [100 µM] (active)
O=C(Nc1ccc2c(c1)C(=O)c1ccccc1-2)c1ccccc1	92.9% (inactive)
C[C@H]1O[C@@H](O[C@H]2[C@@H](O)C[C@H](O[C@H]3[C@@H](O)C[C@H](O[C@H]4CC[C@]5(C)C6C[C@@H](O)[C@]7(C)[C@@H](C8=CC(=O)OC8)CC[C@]7(O)C6CC[C@@H]5C4)O[C@@H]3C)O[C@@H]2C)C[C@H](O)[C@@H]1O (stereo not given in full)	-21.3% (active)
O=C(NCCCl)NCCN1c2nc3ccccc3cc2Sc2cc3ccccc3nc21	25.3% (inactive)
Nc1ccc2c(c1)C(=O)c1cc(Cl)c(Cl)cc1-2	74.9% (inactive)
c1ccc(Nc2ccc(Nc3nc(-c4ccccc4)nc4ccccc34)cc2)cc1	74% (inactive)
COP(=O)(OC)C(c1ccc(O)cc1)(c1ccc(O)cc1)c1ccc(O)cc1	92.8% (inactive)
COc1ccc(C2=NN(C(C)=O)C(c3c(C)nn(-c4ccccc4)c3N3CCOCC3)C2)cc1 (stereo not given)	79.7% (inactive)
Cc1ccc(C(=O)Cc2ccccc2)c(O)c1	99.8% (inactive)
COc1ccc([N+](=O)[O-])c(S(=O)(=O)c2ccc(Cl)cc2)n1	92.3% (inactive)

Every entry's value here was drawn from PubChem BioAssay (NCI).
